# assay-remarks: in vitro
# Format: cell-based
# condition-label: human, nasal epithelial cells
measured-endpoint: MCC

Query block: Using the record for OC[C@@H](O)[C@H](O)[C@@H](O)CO , report its MCC.
Result block: > 5000 µg/mL
